# System: ECHCG
# methodDescription: Post-emergence herbicidal action against ECHCG
# Format: in vivo, Echinochloa crus-galli
# experimentalParameters: dosage 20 g/ha
# Experimental: Seeds of monocotyledonous and dicotyledonous weed and crop plants are laid out in sandy loam soil in wood-fiber pots, covered with soil and cultivated in a greenhouse under good growth conditions. 2 to 3 weeks after sowing, the test plants are treated at the one-leaf stage. […]
experimentalReadout: Post-emergence action against ECHCG in % (%)
Supply the numeric figure in %, leaving out any unit text.

CCn1nnnc1NC(=O)c1ccc(Br)c(C(=O)NCC(F)F)c1Cl [Example 2-182]
90
CCc1c(C(=O)Nc2nnnn2C)ccc(C(F)(F)F)c1C(=O)NC(C)C1CC1 (centres unmarked) [Example 1-341]
90
Cn1nnnc1NC(=O)c1ccc(C(F)(F)F)c(C(=O)NCC2CC2)c1Cl [Example 1-132]
90
CSc1c(C(=O)Nc2nnnn2C)ccc(C(F)(F)F)c1C(=O)NCC1CC1 [Example 1-84]
100
CCn1nnnc1NC(=O)c1ccc(C(F)(F)F)c(C(=O)NC(C)C2CC2)c1SC (centres unmarked) [Example 2-350]
100
CSc1c(C(=O)Nc2nnc(C)o2)ccc(C(F)(F)F)c1C(=O)NC1CC1 [Example 6-60]
90
Cn1nnnc1NC(=O)c1ccc(C(F)F)c(C(=O)NC2CCC2)c1Cl [Example 1-164]
90

Turning now to a further record.
**Q:** Please list Post-emergence action against ECHCG in % recorded for the compound COCCNC(=O)c1c(C(F)(F)F)ccc(C(=O)Nc2nnnn2C)c1Cl [Example 1-138]
**A:** 90

###

# System: SETVI
# methodDescription: Pre-emergence herbicidal action against SETVI
# Format: in vivo, Setaria viridis
# experimentalParameters: Setaria viridis, 504 h, dosage 320 g/ha
# Text: Seeds of monocotyledonous and dicotyledonous weed plants and crop plants are laid out in sandy loam soil in wood-fiber pots and covered with soil. […] The damage to the test plants is scored visually after a test period of 3 weeks by comparison with untreated controls (herbicidal activity in percent (%): 100% activity=the plants have died, 0% activity=like control plants). […]
# Lookup of reported pest or weed control at 320 g/ha keyed by entry
Answer format: numeric, % implied, no suffix.

Reference set (4 entries):
CC(=O)NC(=O)c1c(C(F)(F)F)ccc(C(=O)Nc2nnc(C)o2)c1Cl
90
CCCn1nnnc1NC(=O)c1ccc(C(F)(F)F)c(C(=O)NC)c1Cl
100
Cn1nnnc1NC(=O)c1ccc(C(F)(F)F)c(C(N)=O)c1Cl
100
CCn1nnnc1NC(=O)c1ccc(C(F)(F)F)c(C(=O)NC)c1Cl
100

**Q:** Please look at this compound and report its pest or weed control at 320 g/ha: CCn1nnnc1NC(=O)c1ccc(C(F)(F)F)c(C(N)=O)c1Cl
**A:** 100

###

Entries annotated with measured pest or weed control at 5 g/ha
# Tested on: ECHCG
# methodDescription: Post-emergence herbicidal action against ECHCG
# Type: in vivo, Echinochloa crus-galli
# experimentalParameters: Echinochloa crus-galli, 504 h, dosage 5 g/ha

Recorded pest or weed control at 5 g/ha, per entry:
CNC(=O)c1c(C(F)(F)F)ccc(C(=O)Nc2nnnn2C)c1Cl
100%
CCn1nnnc1NC(=O)c1ccc(C(F)(F)F)c(C(=O)NC(C)C)c1C
90%
COc1c(C(=O)Nc2nnnn2C)ccc(C(F)F)c1C(=O)NC1CC1
80%

**Q:** Give recorded pest or weed control at 5 g/ha. CNC(=O)c1c(C(F)F)ccc(C(=O)Nc2nnnn2C)c1Br
**A:** 90%

**Q:** Give the measured pest or weed control at 5 g/ha for Cc1c(C(=O)Nc2nnnn2C)ccc(C(F)F)c1C(=O)NC(C)C
**A:** 80%

**Q:** Give recorded pest or weed control at 5 g/ha. CCCNC(=O)c1c(C(F)F)ccc(C(=O)Nc2nnnn2CC)c1C
**A:** 80%

**Q:** Identify the reported pest or weed control at 5 g/ha for the following entry. Cc1nnc(NC(=O)c2ccc(C(F)(F)F)c(C(=O)NC(C)C)c2C)o1
**A:** 90%

**Q:** Using the record for CCc1c(C(=O)Nc2nnnn2C)ccc(C(F)F)c1C(=O)NC1CC1 , state its measured pest or weed control at 5 g/ha.
**A:** 80%

**Q:** Write down pest or weed control at 5 g/ha measured for item CNC(=O)c1c(C(F)F)ccc(C(=O)Nc2nnnn2C)c1SC
**A:** 80%

**Q:** Identify pest or weed control at 5 g/ha associated with the compound CCNC(=O)c1c(C(F)(F)F)ccc(C(=O)Nc2nnnn2C)c1Cl
**A:** 80%

**Q:** Annotate the compound CC(C)NC(=O)c1c(C(F)(F)F)ccc(C(=O)Nc2nnnn2C)c1Cl with its measured pest or weed control at 5 g/ha.
**A:** 90%
